# maps each entry to its EC50
- Target desc: GLP-1 Receptor (Homo sapiens)
- Assay details: GLP-1R agonist cAMP stimulation assay
- Condition set: HEK293/CRE-Luc cell line stably expressing the GLP-1 Receptor; 30 min at 37° C.; cAMP dynamic 2 Kit

Worked set:
- Compound: "Cc1nc(-c2cnc(CN3CCC(c4cccc5c4OC(C)(c4ccc(Cl)cc4F)O5)CC3)c(C)c2)no1 (stereo not shown)"
  Target desc: "GLP-1 Receptor (Homo sapiens)"
  Measurement type: "EC50"
  Measured: "> 100 nM"
- Compound: "C[C@]1(c2ccc(Cl)cc2F)Oc2cccc(C3CCN(Cc4ncc(-c5nnc(C(F)(F)F)[nH]5)cc4CS(C)(=O)=O)CC3)c2O1"
  Target desc: "GLP-1 Receptor (Homo sapiens)"
  Measurement type: "EC50"
  Measured: "< 1 nM"
- Compound: "N#CC1(Cc2cc(-c3nnc(C(F)(F)F)[nH]3)cnc2CN2CCN(c3ccc(F)c(OCc4ccc(Cl)cc4F)c3)CC2)CC1"
  Target desc: "GLP-1 Receptor (Homo sapiens)"
  Measurement type: "EC50"
  Measured: "< 1 nM"
- Compound: "CC1(c2ccc(Cl)cc2F)Oc2cccc(C3CCN(Cc4ncc(-c5nnc(C(F)(F)F)[nH]5)cc4CC4(C#N)CC4)CC3(F)F)c2O1 (stereo not shown)"
  Target desc: "GLP-1 Receptor (Homo sapiens)"
  Measurement type: "EC50"
  Measured: "< 1 nM"
- Compound: "CN1CCC(Cc2cc(-c3nnc(C(F)(F)F)[nH]3)cnc2CN2CCC(c3cccc4c3O[C@@](C)(c3ccc(Cl)cc3F)O4)CC2)C1=O (stereo partly shown)"
  Target desc: "GLP-1 Receptor (Homo sapiens)"
  Measurement type: "EC50"
  Measured: "1 to 100 nM"
- Compound: "C[C@]1(c2ccc(Cl)cc2F)Oc2cccc(C3CCN(Cc4ncc(/C=C/C(=O)O)cc4CC4(C#N)CC4)CC3)c2O1"
  Target desc: "GLP-1 Receptor (Homo sapiens)"
  Measurement type: "EC50"
  Measured: "< 1 nM"
- Compound: "Cc1ccc(C2(C)Oc3cccc(C4CCN(Cc5ncc(-c6nnc(C(F)(F)F)[nH]6)cc5CC5(C#N)CC5)CC4)c3O2)c(Cl)c1 (stereo not shown)"
  Target desc: "GLP-1 Receptor (Homo sapiens)"
  Measurement type: "EC50"
  Measured: "< 1 nM"
- Compound: "N#CC1(Cc2cc(-c3noc(=O)[nH]3)cnc2CN2CCC(c3cccc(OCc4ccc(Cl)cc4F)n3)CC2)CC1"
  Target desc: "GLP-1 Receptor (Homo sapiens)"
  Measurement type: "EC50"
  Measured: "1 to 100 nM"

Entry under test: N#CC1(Cc2cc(-c3nnc(C(F)(F)F)[nH]3)cnc2CN2CCC(c3cccnc3OCc3ccc(Cl)cc3F)CC2)CC1 . Its EC50 was < 1 nM

Entry under test: C[C@]1(c2ccc(Cl)cn2)Oc2cccc(C3CCN(Cc4ncc(-c5nnc(C(F)(F)F)[nH]5)cc4CC4(C#N)CC4)CC3F)c2O1 (single isomer, unassigned) [Example 26] . Its EC50 was < 1 nM

###

# maps each entry to its pEC50
- Target desc: GLP-1 Receptor (Homo sapiens)
- Assay details: GLP-1R agonist cAMP stimulation assay
- Condition set: HEK293/CRE-Luc cell line stably expressing the GLP-1 Receptor; 30 min at 37° C.; cAMP dynamic 2 Kit
pEC50: −log10 of the molar value.

Worked set:
- Molecule: "C[C@]1(c2ccc(Cl)cc2F)Oc2c(F)ccc(C3CCN(Cc4ncc(-c5nnc(C(F)(F)F)[nH]5)cc4CC4(C#N)CC4)CC3F)c2O1 (single isomer, unassigned) [Example 30]"
  Measured: "> 9.00"
- Molecule: "CC1(c2ccc(Cl)cc2F)Oc2cccc(C3=CCN(Cc4ncc(-c5nnc(C(F)(F)F)[nH]5)cc4CC4(C#N)CC4)CC3)c2O1 (stereo not drawn)"
  Measured: "> 9.00"
- Molecule: "C[C@]1(c2ccc(Cl)cc2F)Oc2cccc(C3CCN(Cc4ncc(CCC(=O)O)cc4CC4(C#N)CC4)CC3)c2O1"
  Measured: "7.00 to 9.00"
- Molecule: "C[C@]1(c2ccc(Cl)cc2F)Oc2cccc(C3CCN(Cc4ncc(-c5noc(=O)[nH]5)cc4CS(C)(=O)=O)CC3)c2O1"
  Measured: "> 9.00"
- Molecule: "C[C@]1(c2ccc(Cl)cc2F)Oc2cccc(C3CCN(Cc4ncc(-c5nnc(C(F)(F)F)[nH]5)cc4CC4CCOC4)CC3)c2O1 (stereo partly drawn)"
  Measured: "7.00 to 9.00"

Next molecule, pEC50 to be filled in.
Entry under test: COC(C)Cc1cc(-c2nnc(C(F)(F)F)[nH]2)cnc1CN1CCC(c2cccc3c2O[C@@](C)(c2ccc(Cl)cc2F)O3)CC1 (stereo partly drawn) . Its pEC50 was 7.00 to 9.00

###

- Target desc: GLP-1 Receptor (Homo sapiens, UniProt P43220)
- Sequence (P43220 24-463): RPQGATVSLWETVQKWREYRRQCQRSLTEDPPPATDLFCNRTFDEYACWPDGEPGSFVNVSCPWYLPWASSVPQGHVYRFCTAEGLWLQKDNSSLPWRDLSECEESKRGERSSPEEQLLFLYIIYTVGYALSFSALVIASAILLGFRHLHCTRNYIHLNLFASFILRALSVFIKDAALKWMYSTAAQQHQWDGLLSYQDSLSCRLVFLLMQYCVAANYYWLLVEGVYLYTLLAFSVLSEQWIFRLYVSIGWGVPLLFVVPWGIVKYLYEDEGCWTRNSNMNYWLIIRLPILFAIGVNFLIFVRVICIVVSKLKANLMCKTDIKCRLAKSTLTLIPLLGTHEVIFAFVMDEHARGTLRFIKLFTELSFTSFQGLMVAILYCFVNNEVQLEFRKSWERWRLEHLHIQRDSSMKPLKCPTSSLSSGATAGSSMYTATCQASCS
- Assay details: GLP-1R agonist cAMP stimulation assay
- Condition set: HEK293/CRE-Luc cell line stably expressing the GLP-1 Receptor; 30 min at 37° C.; cAMP dynamic 2 Kit
pEC50: −log10 of the molar value.
# maps each entry to its pEC50

Worked set:
- Compound: "CC1(c2ccc(Cl)cc2F)Oc2cc(F)cc(C3CCN(Cc4ncc(-c5nnc(C(F)(F)F)[nH]5)cc4CC4(C#N)CC4)CC3)c2O1 (single isomer, unassigned) [Example 13]"
  Measurement type: "pEC50"
  Measured: "> 9.00"
- Compound: "C[C@]1(c2ccc(Cl)cc2F)Oc2cccc(C3CCN(Cc4ncc(-c5nnc(C#N)[nH]5)cc4CC4(C#N)CC4)CC3)c2O1"
  Measurement type: "pEC50"
  Measured: "> 9.00"

Entry under test: C[C@]1(c2ccc(Cl)cn2)Oc2cccc(C3CCN(Cc4ncc(-c5nnc(C(F)(F)F)[nH]5)cc4CC4(C#N)CC4)CC3F)c2O1 (single isomer, unassigned) [Example 25] . Its pEC50 was > 9.00

Entry under test: N#CC1(Cc2cc(-c3nnc(C(F)(F)F)[nH]3)cnc2CN2CCC(c3ccnc(OCc4ccc(Cl)cc4F)n3)CC2)CC1 . Its pEC50 was > 9.00

###

- Target desc: GLP-1 Receptor (Homo sapiens, UniProt P43220)
- Construct: host or cells: HEK293/CRE-Luc
- Assay details: GLP-1R agonist cAMP stimulation assay
- Format: cell-based
- Condition set: HEK293/CRE-Luc cell line stably expressing the GLP-1 Receptor; 30 min at 37° C.; cAMP dynamic 2 Kit
# maps each entry to its EC50

Worked set:
- Chemical string: "C[C@]1(c2ccc(Cl)cn2)Oc2cccc(C3CCN(Cc4ncc(-c5noc(=O)[nH]5)cc4CC4(C#N)CC4)CC3)c2O1"
  Target desc: "GLP-1 Receptor (Homo sapiens, UniProt P43220)"
  EC50: "< 1 nM"
- Chemical string: "COC1(Cc2cc(-c3nnc(C(F)(F)F)[nH]3)cnc2CN2CCC(c3cccc4c3O[C@@](C)(c3ccc(Cl)cc3F)O4)CC2)CC1"
  Target desc: "GLP-1 Receptor (Homo sapiens, UniProt P43220)"
  EC50: "1 to 100 nM"
- Chemical string: "N#CC1(Cc2cc(-c3nnc(C(F)(F)F)[nH]3)cnc2CN2CCN(c3ncc(F)c(OCc4ccc(Cl)cc4F)n3)CC2)CC1"
  Target desc: "GLP-1 Receptor (Homo sapiens, UniProt P43220)"
  EC50: "1 to 100 nM"
- Chemical string: "N#CC1(Cc2cc(-c3nnc(C(F)(F)F)[nH]3)cnc2CN2CCC(c3ncc(F)c(OCc4ccc(Cl)cc4F)n3)CC2)CC1"
  Target desc: "GLP-1 Receptor (Homo sapiens, UniProt P43220)"
  EC50: "< 1 nM"

Entry under test: Cc1nc(-c2nnc(C(F)(F)F)[nH]2)cnc1CN1CCC(c2cccc3c2O[C@@](C)(c2ccc(Cl)cc2F)O3)CC1 . Its EC50 was 1 to 100 nM

###

- Target desc: GLP-1 Receptor (Homo sapiens, UniProt P43220)
- Assay details: GLP-1R agonist cAMP stimulation assay
- Condition set: HEK293/CRE-Luc cell line stably expressing the GLP-1 Receptor; 30 min at 37° C.; cAMP dynamic 2 Kit
pEC50: −log10 of the molar value.
Measurement type: pEC50

Worked set:
- Compound: "CS(=O)(=O)Cc1cc(-c2nnc(C(F)(F)F)[nH]2)cnc1CN1CCC(Oc2cccc(Cc3ccc(Cl)cc3F)n2)CC1"
  Measurement type: "pEC50"
  Measured: "7.00 to 9.00"
- Compound: "N#CC1(Cc2cc(-c3nnc(C(F)(F)F)[nH]3)cnc2CN2CCN(c3ccc(Cl)c(OCc4ccc(Cl)cc4F)c3)CC2)CC1"
  Measurement type: "pEC50"
  Measured: "7.00 to 9.00"

Next compound, pEC50 to be filled in.
Entry under test: CC1(c2ccc(Cl)c(F)c2)Oc2cccc(C3CCN(Cc4ncc(-c5nnc(C(F)(F)F)[nH]5)cc4CC4(C#N)CC4)CC3)c2O1 (stereo not drawn) . Its pEC50 was > 9.00
